Origin of measurements: ChEMBL document CHEMBL1131417

# Target Or System: Sigma 2 receptor
# Assay Explanation: Binding affinity was tested against sigma-2 receptor site in presence of dextrallorphan in rat liver membranes.
# Format: cell membranes, Membrane
pKi: −log10 of the molar value.
Value Kind: pKi

Previously resolved entries follow.
CC(C)(C)OC(=O)NCCCC(=O)N1CCN(CCCc2ccccc2)CC1 : 6.90
COc1ccccc1CC(=O)N1CCN(CCCc2ccccc2)CC1 : 6.53
COc1cccc(CC(=O)N2CCN(CCCc3ccccc3)CC2)c1 : 6.69
O=[N+]([O-])c1ccc(CCN2CCN(CCCc3ccccc3)CC2)cc1 : 7.60
COc1ccccc1CCN1CCN(CCCc2ccccc2)CC1 : 8.12
Nc1ccccc1CCN1CCN(CCCc2ccccc2)CC1 : 7.74
COc1ccc(CCN2CCN(CCCc3ccccc3)CC2)cc1 : 7.54
Nc1ccc(CCN2CCN(CCCc3ccccc3)CC2)cc1 : 7.85

A = Nc1cccc(CCN2CCN(CCCc3ccccc3)CC2)c1
B = O=[N+]([O-])c1cccc(CCN2CCN(CCCc3ccccc3)CC2)c1
C = NCCCN1CCN(CCCc2ccccc2)CC1
D = NCCCC(=O)N1CCN(CCCc2ccccc2)CC1
E = NCC(=O)N1CCN(CCCc2ccccc2)CC1
Q: Given 5 molecules, produce a descending ranking by pKi. Would you mind listing the labels in the order asked for?
A: B, A, E, C, D
(B: 8.03, A: 7.43, E: 6.52, C: 5.70, D: 5.42)

P = NCCC(=O)N1CCN(CCCc2ccccc2)CC1
Q = COc1cccc(CCN2CCN(CCCc3ccccc3)CC2)c1
Q: Of the two listed items, P and Q , which carries the larger pKi figure? Your answer should be the label attached to the chosen record.
A: Q

1 = Clc1ccc(CCN2CCN(CCCc3ccccc3)CC2)cc1Cl
2 = CC(C)(C)OC(=O)NCCC(=O)N1CCN(CCCc2ccccc2)CC1
Q: Of the two listed items, 1 and 2 , which carries the larger pKi figure? Your answer should be the label attached to the chosen record.
A: 1
(1: 7.41, 2: 5.34)

1 = O=[N+]([O-])c1ccccc1CCN1CCN(CCCc2ccccc2)CC1
2 = COc1ccc(CCN2CCN(CCc3ccc(OC)cc3)CC2)cc1
Q: Kindly compare 1 with 2 and tell me which has the lower pKi figure. Your answer should be the label attached to the chosen record.
A: 2
